Data origin: PubChem BioAssay (NCI)

test system: SK-OV-3 ovarian; test: NCI tumour cell line growth inhibition, 48 h
measurement.name: TGI

Example results:
COc1c(C)c(C/C=C(\C)CC/C=C(\C)CC/C=C(\C)CC/C=C(\C)CCC=C(C)C)c(OC)c(OC)c1OC; > 100 µM
CCOc1cc2c(cc1O)C=C[C@@H]1[C@@H]2CC[C@]2(C)[C@@H](O)CC[C@@H]12; > 70.2 µM

Then this molecule:
Query CC1=NC(C)=C(/C(C)=N/NC(=O)c2ccccc2O)C(C)/C1=C(/C)NNC(=O)c1ccccc1O (stereo not drawn) yields TGI of > 100 µM

###

Examples of compounds with documented TGI follow.
system: SF-268 CNS; experiment: NCI tumour cell line growth inhibition, 48 h
Numbers only here, please. The scale is µM.

Answered cases to consult:
Cc1ccc(S(=O)(=O)NC(Cc2ccccc2)C(=O)CCl)cc1 (stereo not given); 31.4
COc1cc(-c2n/c(=C\c3c(O)[nH]c4ccccc34)cc3c2=Nc2ccccc2-3)ccc1F; 44.2

As a next step, examine the compound that follows.
Note to self: TGI recorded for `O=[N+]([O-])c1cc(I)cc(/C=N/NS(=O)(=O)c2ccc(F)cc2)c1O` was 61.5

###

GI50 values for the compounds below.
tested on: RPMI-8226 leukemia; test: NCI tumour cell line growth inhibition, 48 h

Answered cases to consult:
O=C1NN(C(=O)c2ccccc2)C(c2ccc(Cl)c(Cl)c2)=C/C1=C\c1ccccc1[N+](=O)[O-]; 1.77 µM
COc1ccc(OC)c(-c2cc(-c3ccc(Cl)cc3)nn2-c2ccccc2)c1; 3.29 µM

The value of GI50 recorded for `COc1cc(OCCCN2CCCC2)ccc1Nc1ncc(Cl)c(Nc2ccccc2P(C)(C)=O)n1` when tested on RPMI-8226 leukemia reads 2.68 µM

Item `Cc1cc2[nH]c(=O)c3c4ncccc4cn3c2cc1C` ; assay system RPMI-8226 leukemia; GI50 reported as 2.66 µM

Measured GI50 for this entry `O=C(N/N=C/c1ccc([N+](=O)[O-])cc1)c1ccccc1Nc1ccnc(C(F)(F)F)c1` on RPMI-8226 leukemia: 1.61 µM

###

system: OVCAR-4 ovarian; assay: NCI tumour cell line growth inhibition, 48 h
So basically: TGI at 20 µM or higher? That is y. Lower than 20 µM? That is n.

Previously resolved entries follow.
CC(C)(C)OC(=O)NC(Cc1ccccc1)C(=S)N1CCCC1 (stereo not given); y
O=C(O)C(Cc1ccccc1)N=Cc1nc(-c2ccccc2)oc1O (stereo not given); y
Cc1ccc(NC(=O)CCc2nnc3s/c(=C\C=C\c4ccccc4)c(=O)n23)cc1; y
COC(=O)C(/C(=N/N)C(=O)Nc1cc(Cl)ccc1Cl)c1nc2ccc([N+](=O)[O-])cc2[nH]c1=O (stereo not given); y
Cc1nc(-c2cccnc2)sc1C(=O)CC(=O)C(=O)Nc1cccc(NC(=O)C(=O)CC(=O)c2sc(-c3cccnc3)nc2C)n1; y
Cc1cc(C)c([I+]c2c(C)cc(C)cc2C)c(C)c1; n
NC(CCl)=NCC12CC3CC(CC(C3)C1)C2; n
Oc1cccc2ccc(SSc3ccc4cccc(O)c4n3)nc12; y
O=C1C=CC(=O)c2c(O)c(NCCN3CCOCC3)c(Cl)c(O)c21; n
Cc1cn(CCCCOC(=O)NC(CCCN=C(N)N)C(=O)O)c(=O)[nH]c1=O (stereo not given); y

Quick check, TGI >= 20 µM? `CC1(C)CC[C@]2(C)[C@@H](O)C[C@]3(C)C(=CC[C@@H]4[C@@]5(C)CC[C@H](O)C(C)(C)[C@@H]5CC[C@]43C)[C@@H]2C1`
y

Is the recorded value of TGI equal to or greater than 20 µM for this compound? O=C1CC=C2C3CC4N(CCC45c4ccccc4N1C25)C/C3=C\CO (stereo not given)
y

Check the entry `Cn1c(=O)nc2n(-c3ccc(F)c(F)c3)c3ccccc3nc-2c1=O` : does TGI equal or exceed 20 µM?
y

Threshold query (TGI >= 20 µM) on `C[n+]1c2ccccc2n2c3ccccc3c(NCc3ccco3)c(C#N)c21`
n

Entry `O=c1c2ccccc2ncn1COCc1ccccc1` : is its TGI no less than 20 µM?
y

Dear colleague, could you confirm whether `COc1ccc2cc(C(=O)N3CCC([C@@H](C)C(=O)NCc4ccc5c(c4)OCO5)CC3)[nH]c2c1` has TGI at or above 20 µM?
y

# bool: TGI of `CSc1ccc(Cc2cc(C(C)(C)C)cc(C(C)(C)C)c2O)cc1` >= 20 µM
y

Tell me whether TGI is at least 20 µM here: `COc1c(C)c(C/C=C(\C)CC/C=C(\C)CC/C=C(\C)CC/C=C(\C)CCC=C(C)C)c(OC)c(OC)c1OC`
y

Check this compound for TGI at or above 20 µM: `Cc1c(C)c(S(=O)(=O)N(CCCN)OCCCN)c(C)c2c1OC(C)(C)CC2`
y

Decide: TGI of `CCOC(=O)NC(=O)c1cn(C2CCCCC2)c(=O)n(C)c1=O` >= 20 µM?
y

###

tested on: SK-OV-3 ovarian; assay: NCI tumour cell line growth inhibition, 48 h; in the data active means GI50 below about 0.43 µM; inactive means the rest
Hi there, use one of these labels in your reply, thanks! active, inactive

Study these solved cases before continuing.
Cn1cc(-c2ncnc3ccc(-c4cnc(Cl)c(NS(C)(=O)=O)c4)cc23)c2ccccc21; active
C=C(C)[C@@H]1C/C=C(/COC(C)=O)CC[C@H]2O[C@@]2(C)CC/C=C(\C)CC1; inactive
COC(=O)[C@@H](C)C[C@H](Cc1ccc(F)cc1)NC(=O)c1csc([C@@H](C[C@H](C(C)C)N(C)C(=O)[C@@H](NC(=O)[C@H]2CCCCN2C)C2CC2)OC(C)=O)n1; inactive

Test call, this molecule: `COc1ccc(NC(=O)c2ccc(C(F)(F)F)nc2Nc2ccc(Cl)cc2C)cc1Cl`
inactive

###

Attribute: TGI
test system: U251 CNS; assay: NCI tumour cell line growth inhibition, 48 h
Return type: number; implicit unit µM.

CCCC(=O)Oc1c2ccsc2c(OC(=O)CCC)c2ccsc12; 4.4

Kindly consider the entry below.
Observed TGI on U251 CNS, entry C=CCC1(CN(C)C)CC/C(=C\c2cc(OC)c(OC)c(OC)c2)C1=O (stereo not given) , equals 59.5

###

tested on: NCI/ADR-RES ovarian; assay: NCI tumour cell line growth inhibition, 48 h
// reported TGI for each item listed
State just the number; it will be interpreted in µM.

Use the examples below as a reference point.
CC(C)(C)c1ccc(NS(=O)(=O)c2ccc(N)cc2)cc1; 75.9
CCN(CC)CCOCCOCC1(c2ccc(Cl)c(Cl)c2)CCCCC1; 24.3
O=C(Nc1ccc(Cl)cc1)c1cc(NCc2cc(O)ccc2O)ccc1O; 62.9

Let us examine a further case.
According to the records, this molecule `CC(C)(C)OC(=O)NCC(c1c[nH]c2cc(Br)ccc12)c1c[nH]c2cc(Br)ccc12` displays TGI of 35.9

###

# TGI listing for each entry below
system: MDA-MB-231 breast; assay: NCI tumour cell line growth inhibition, 48 h

Known TGI results, listed for orientation:
N#CC1(C#N)C(=O)c2ccncc2C1=O; > 100 µM
O=P(O)(O)c1ccc2c(c1)OCCOCCOCCOCCO2; > 100 µM
O=C1CC=C2C3CC4N(CCC45c4ccccc4N1C25)C/C3=C\CO (configuration not stated); > 100 µM

Summary line: `CC1(C)CC[C@]2(C)[C@@H](O)C[C@]3(C)C(=CC[C@@H]4[C@@]5(C)CC[C@H](O)C(C)(C)[C@@H]5CC[C@]43C)[C@@H]2C1` , MDA-MB-231 breast, reported TGI = 48.6 µM

Per the reported MDA-MB-231 breast data, `C[C@]12CC[C@@H]3c4ccc(O)cc4CC[C@H]3[C@@H]1CC(Cc1ccccc1)(Cc1ccccc1)C2=O` has TGI of 28.5 µM

Measured on MDA-MB-231 breast, `C#Cc1cccc(Nc2nc(C)nc3cc(NC(=O)CCl)ccc23)c1` has a documented TGI of 3.92 µM

Entry `CN1/C(=C\N=O)C(C)(C)N(O)C1(C)C` under MDA-MB-231 breast had TGI of > 100 µM

Item `O=C1C=CC(=O)c2c(O)c(NCCN3CCOCC3)c(Cl)c(O)c21` ; assay system MDA-MB-231 breast; TGI reported as 6.43 µM

# value of TGI, MDA-MB-231 breast, item `CSc1c(C(N)=S)c(N)nn1-c1ccccc1` = > 100 µM

// compound `C/C(COc1ccc2oc(-c3ccccc3)cc(=O)c2c1)=N\O` , assay MDA-MB-231 breast, TGI value: 36.4 µM

Value (TGI, MDA-MB-231 breast) for record `CC(=O)CCc1ccc(Oc2c3ccccc3nc3occc23)cc1` = > 100 µM

// returns TGI for `Cc1cc(C)n(CN(CCCCO)Cn2nc(C)cc2C)n1` with MDA-MB-231 breast; value = 78.6 µM

The compound `COc1ccc(OC)c(-c2cc(-c3ccc(Cl)cc3)nn2-c2ccccc2)c1` on MDA-MB-231 breast: TGI was 80 µM
